Assay read-out IC50 on HPK1 (Homo sapiens (Human), UniProt Q92918); records merged from the literature.

compound	IC50
O=C1NCc2c(-c3cnc4cc(C(F)F)ccn34)ccc(Nc3ccc([C@@]4(O)CCOC4)cn3)c21	< 100 nM
CC(=O)Nc1cc(-c2c[nH]c3ncc(-c4cc(C)c5c(c4)CN(C)CC5)nc23)ccc1C(=O)N(C)C	75 nM
CN1CCN(c2ccc(Nc3cnc(-c4cncn4C)c4c3C(=O)NC4)nc2)CC1	< 1000 nM
CN1CCN2c3ccc(-c4cnc5[nH]cc(-c6ccc(C(=O)N7CC8(COC8)C7)cc6)c5c4)cc3OCC2C1 (centres unmarked)	≤ 10 nM
O=C1NCc2c(-c3ccccn3)ncc(Nc3ccc(N4CCNCC4)cn3)c21	1000 to 5000 nM
COc1cc2c(cc1Nc1ncc3c(N)c(F)c(-c4cnc5c(c4C)NCCO5)c(Cl)c3n1)CN(C)CC2	0.0355 nM
O=c1[nH]ccc2nc(-c3cc(C4CCC4)ccc3F)cc(Nc3ccc(N4CCC(O)CC4)cn3)c12	100 to 1000 nM
COc1nc2c(cc1Nc1ncc3ccnc(-c4cc(C)nn4C)c3n1)CN(C)CC2	4.67 nM
Cc1cc(-c2cnc3[nH]cc(-c4ccc(C(=O)N(C)C)cc4)c3n2)cc2c1CCN(CCC(=O)NC1CC1)C2	22 nM
[2H]C([2H])([2H])n1ncc2c(N3C[C@H](N)C4(CC4)C3)c(NC(=O)c3ccc(=O)n(-c4c(F)cccc4F)n3)ccc21	< 100 nM

Lab request: please report IC50 under test system HPK1 (Homo sapiens (Human), UniProt Q92918) for `COc1cnccc1COc1nc(-c2cc3c(c(OC)c2)CCN(C)C3)cnc1N`
21 nM

* * *

pIC50: −log10 of the molar value.
Collected set of pIC50 measured with HPK1 (Homo sapiens (Human)) across studies.

# count of solved cases: 7
molecule	pIC50
CC(C)c1nc2c(N3CC[C@H](CN)C3)c(NC(=O)c3ccc(=O)n(-c4c(F)cccc4F)n3)ccc2n1C	> 7.00
CN1CCN(C(=O)c2ccc3[nH]c(-c4c(N)c5ccsc5[nH]c4=O)nc3c2)CC1	6.30 to 7.30
COc1cc2c(cc1Nc1ncc(C(N)=O)c(Nc3ccccc3Br)n1)CN(C(=O)C(C)C)CC2	6.22
COC[C@@H]1CN(c2ccc(Nc3cnc(-c4ccnc5c4ccn5C)c4c3C(=O)NC4)nc2)CC[C@@H]1O	> 7.00
O=C1NCc2c(-c3cnc4cc(F)ccn34)ccc(Nc3ccc(C4CCOC4)c(CN4CCCC4)n3)c21 (centres unmarked)	> 7.00
Cn1cc2c(-c3ccc(Nc4ccc(N5CCC(O)CC5)cn4)c4c3CNC4=O)cnc-2cn1	6.00 to 7.00
Cc1cc(-c2c[nH]c3ncc(-c4cc(C)c5c(c4)CN(C)CC5)nc23)ccc1C(=O)N(C)C[C@H](C)O	7.13

Read the next record carefully.
For the molecule `CN1CCN(c2ccc(Nc3ccc(-c4ccnc5ocnc45)c4c3C(=O)NC4)nc2)CC1` , what pIC50 is on record?
6.00 to 7.00

* * *

Here's a roundup of IC50 values tested on HPK1 (Homo sapiens (Human)), taken from various published works.

molecule	readoutLabel	result
CC(C)n1cc2c(N3CCC[C@@H]3CN)c(NC(=O)c3ccc(=O)n(-c4c(F)cccc4F)n3)ccc2n1	IC50	< 100 nM
COc1cc2c(cc1Nc1ncc(C(N)=O)c(N[C@H]3c4ccccc4C[C@H]3CO)n1)CN(C)CC2	IC50	15.6 nM
O=C1NCc2c(-c3cnc4cc(F)ccn34)ccc(Nc3ccc(N4CCO[C@@H](CO)C4)cn3)c21	IC50	< 100 nM
Cn1c(C2(C(F)(F)F)CC2)nc2c(N3CC[C@@H](N)C3)c(NC(=O)c3ccc(=O)n(-c4c(F)cccc4F)n3)ccc21	IC50	< 100 nM
O=C(Nc1ccc(-c2cc(Nc3ccc(N4CCOCC4)cn3)c3c(=O)[nH]ccc3n2)c(F)c1)C1CCCCC1	IC50	≤ 100 nM
CC(C)(O)[C@H]1CN(c2ccc(Nc3cnc(-c4cnc5ccccn45)c4c3C(=O)NC4)nc2)CCO1	IC50	> 1000 nM
COc1nc2c(cc1Nc1ncc3cccc(-c4cccnc4)c3n1)CN(C)CC2	IC50	3.49 nM
CNCc1cc(C)c(-c2ncc3[nH]nc(-c4ccc5c(c4)OCC4CN(C)CCN54)c3n2)c(F)c1 (stereo not shown)	IC50	10 to 100 nM

What reported IC50 corresponds to `COc1cc(-c2cnc(N)c(OCc3ccnc(N)c3)n2)cc2c1CCN(C)C2` on HPK1 (Homo sapiens (Human))?
7.2 nM

Lab note: need IC50 for `CN1CCN(c2ccc(Nc3ccc(-c4ccnc(C5(C#N)CCOCC5)c4)c4c3C(=O)NC4)nc2)CC1` on HPK1 (Homo sapiens (Human)), anyone have it?
< 1000 nM

Missing value: IC50, HPK1 (Homo sapiens (Human)), entry `CC(C)c1ccc(F)c(-c2cc(Nc3ccc(N4CCN(C)CC4)cn3)c3c(=O)[nH]ccc3n2)c1` . Fill in?
≤ 100 nM

What is its IC50 for HPK1 (Homo sapiens (Human))? Entry: `C[C@@H](Nc1ncc(C(N)=O)c(Nc2cccc3c2CCNC3=O)n1)c1ccc(F)cc1`
176 nM

Param readout= IC50; system= HPK1 (Homo sapiens (Human)); entry= `COc1cc2c(cc1Nc1ncc(C(N)=O)c(Nc3cccc(CNC(=O)C4(F)CC4)c3)n1)CN(C)CC2` ; returns value.
0.56 nM

Requested read-out IC50, target or system HPK1 (Homo sapiens (Human)), entry `CNc1cc(-c2ncc(Nc3ccc(N4CCN(C)CC4)cn3)c3c2CNC3=O)ccn1`
< 1000 nM

What IC50 appears in the records for this molecule with HPK1 (Homo sapiens (Human))? COc1cc2c(cc1Nc1ncc(C(N)=O)c(Nc3c(F)cccc3C(C)OC)n1)CN(C)CC2 (racemic)
0.22 nM

# query: IC50 | item `Cn1nccc2c(-c3ccc(Nc4ccc(N5CCC(O)CC5)cn4)c4c3CNC4=O)cnc1-2` | system: HPK1 (Homo sapiens (Human))
> 1000 nM

Entry `C[C@H](O)c1ccc(Nc2ccc(-c3cnc4cc(F)ccn34)c3c2C(=O)NC3)nc1CN(C)C` , system HPK1 (Homo sapiens (Human)): what IC50 was measured?
≤ 100 nM

Identify the measured IC50 of `C[C@H]1CN(c2c(NC(=O)c3ccc(=O)n(-c4c(F)cccc4F)n3)ccc3c2cnn3C2CCOCC2)C[C@@H]1N` for HPK1 (Homo sapiens (Human)).
< 100 nM

// lookup IC50 | system=HPK1 (Homo sapiens (Human)) | key= `COCC1(O)CCN(c2ccc(Nc3ccc(-c4cnc5cc(F)ccn45)c4c3C(=O)NC4)nc2CN(C)C)CC1`
< 100 nM

Query the reported IC50 for HPK1 (Homo sapiens (Human)); item: CC(=O)N1CCCC1c1ccc(Nc2ncc3c(N)c(F)c(-c4cnc5c(c4C)NCCO5)cc3n2)cc1 (single isomer, unassigned)
0.149 nM

// map `Cn1ncc(Nc2ncc(C(N)=O)c(Nc3cccc4c3CCNC4=O)n2)c1C(F)F` to recorded IC50 (system: HPK1 (Homo sapiens (Human)))
82.5 nM

Param readout = IC50; param system = HPK1 (Homo sapiens (Human)); param query = `CC1(C(=O)Nc2ccc(-c3cc(Nc4ccc(N5CCC(O)CC5)cn4)c4c(=O)[nH]ccc4n3)c(F)c2)CCC1` ; response: value
> 1000 nM

* * *

Collected set of log10 of IC50 measured with HPK1 (Homo sapiens (Human), UniProt Q92918) across studies.
Use the decimal logarithm of IC50 (nM).

Below, each entry is followed by its recorded log10 of IC50 result.
compound	log10 of IC50
COc1cc2c(cc1Nc1ncc(C(N)=O)c(Nc3ccccc3CN3CCOCC3)n1)CN(C)CC2	0.16
CNC(=O)c1ccc(Nc2ncc3c(N)c(F)c(-c4c(Cl)nc5c(c4C)NCCO5)c(Cl)c3n2)c(OC)c1	0.83
COc1ccc(-c2ccc3cnc(Nc4cc5c(cc4OC)CCNC5)nc3c2)cn1	1.54
Cc1cc(-c2cnc(N)c(OCc3ccncc3OCc3ccccc3)n2)cc2c1CCN(C)C2	0.91

What is its log10 of IC50 for HPK1 (Homo sapiens (Human), UniProt Q92918)? Entry: COc1cc2c(cc1Nc1ncc3ccc(NCC4CC(=O)N(C)C4)cc3n1)CN(C)CC2 (racemic)
2.56

* * *

Collected literature values of IC50 measured for UniProt Q92918.

compound	IC50
Cc1cccc(F)c1-n1nc2c(-c3ccc4c(c3)CN3C(=O)OC[C@@H]3C4)n[nH]c2cc1=O	≤ 50 nM
CNCc1ccccc1Nc1nc(Nc2cc3c(cc2OC)CCN(C)C3)ncc1C(N)=O	0.63 nM
COc1cc2c(cc1Nc1ncc3ccc(NCC4=NS(=O)(=O)c5cc(C)ccc5N4)cc3n1)CN(C)CC2	204 nM
COc1cc(-c2cc(Nc3cc(C4CCOC4)[nH]n3)c3c(=O)[nH]ccc3n2)c(F)cc1C(=O)N1CCCCC1 (centres unmarked)	> 1000 nM
CN1CCN(c2ccc(Nc3ccc(-c4ccnc(N5CCCCC5)c4)c4c3C(=O)NC4)nc2)CC1	< 1000 nM
O=C(Nc1ccc(Cl)c(C2=Cc3cnc(NC4COC4)nc3N3CCN=C23)c1)c1cc(C(F)(F)F)ccn1	< 100 nM
Cc1cccc(F)c1-n1nc2c(-c3ccc4c(c3)CN(C3CCOCC3)CC4)n[nH]c2cc1=O	50 to 500 nM
Cc1ccn2c(-c3ccc(Nc4ccc(N5CCC(O)(CN6CCOCC6)CC5)cn4)c4c3CNC4=O)cnc2c1F	< 100 nM

What value of IC50 on UniProt Q92918 does `CN(C)CCc1nc(Nc2ccc(-c3cnc4cc(F)ccn34)c3c2C(=O)NC3)ccc1C1CCOCC1` have?
< 100 nM

Return IC50 measured with UniProt Q92918 given this compound: `CNc1ncc2c(n1)N1CCN=C1C(c1cc(NC(=O)c3ccnc(C(F)(F)F)n3)ccc1C)=C2`
> 10000 nM

# returns recorded IC50 (system: UniProt Q92918) for `Cc1cc(-c2cnc3[nH]cc(-c4ccc(C(=O)N(C)C[C@@H](C)O)cc4)c3c2)cc2c1N1CCN(C)C[C@@H]1CC2`
18 nM

Give UniProt Q92918 IC50 for `Cn1cnc2c(-c3ccc(Nc4ccc(N5CCNCC5)cn4)c4c3CNC4=O)cccc21`
< 100 nM

# returns recorded IC50 (system: UniProt Q92918) for `O=C1NCc2c(-c3ccnc4c3ccn4C(F)F)ncc(Nc3ccc(N4CCC(O)CC4)cn3)c21`
< 100 nM

Provide the documented IC50 with UniProt Q92918 as the system for `Cc1cccc(F)c1Nc1nc(Nc2cc3c(cc2F)CCN(C)C3)ncc1C(N)=O`
0.11 nM

Request body: readout IC50, system UniProt Q92918, query `C/C(Nc1ccn(C(C)(C)CO)n1)=C1/C(=O)Nc2cnc(-c3cnccc3C)cc21` . Return the value.
< 50 nM

Item `Cn1ccc2c(-c3ccc(Nc4ccc(N5CCC(O)CC5)cn4)c4c3CNC4=O)ccnc21` with UniProt Q92918 - IC50?
< 100 nM

What value of IC50 on UniProt Q92918 does `Cc1cc(Nc2ncc3c(N)c(F)c(-c4cnc5c(c4C)NCCO5)cc3n2)sn1` have?
0.38 nM
